Reference for the values: patent US10344049B2

Test system: human breast cancer cells MDA-MB-468
Method Summary: Cell viability test (Resazurin), MDA-MB-468 cells
Format: cell-based
Study Conditions: MDA-MB-468 cells, 48 hours, 0.1% FCS, Resazurin; read-out: inhibitory concentrations of cell growth activity IC50
Items are presented alongside their recorded pIC50.
On this scale, pIC50 is minus log10 of a concentration expressed in M (mol/L).

Example compounds with recorded pIC50:
>>> test_result("C[C@H](C/C=C/C(C)(C)O)[C@H]1CC[C@@]2(C)[C@@H]3[C@@H](O[C@@H]4O[C@H](CO)[C@@H](O)[C@H](O)[C@H]4O)C=C4[C@@H](CC[C@H](O)C4(C)C)[C@]3(C=O)CC[C@]12C")
4.41
>>> test_result("CC(C)=C[C@H](O)C[C@@H](C)[C@H]1CC[C@@]2(C)[C@@H]3[C@@H](O[C@@H]4O[C@H](CO)[C@@H](O)[C@H](O)[C@H]4O)C=C4[C@@H](CC[C@H](O)C4(C)C)[C@]3(C=O)CC[C@]12C")
4.23
>>> test_result("CO[C@H]1O[C@]23C=C[C@@H]4[C@@]1(CC[C@]1(C)[C@@H]([C@H](C)C/C=C/C(C)(C)O)CC[C@@]41C)[C@@H]2CC[C@H](O)C3(C)C")
5.16
>>> test_result("COC1O[C@]23C=C[C@@H]4[C@@]1(CC[C@]1(C)[C@@H]([C@H](C)C/C=C/C(C)(C)O)CC[C@@]41C)[C@@H]2CC[C@H](O)C3(C)C (stereo partly drawn)")
4.61
>>> test_result("CC(C)=C[C@@H](C[C@@H](C)[C@H]1CC[C@@]2(C)[C@@H]3[C@@H](O)C=C4[C@@H](CC[C@H](O)C4(C)C)[C@]3(C=O)CC[C@]12C)O[C@@H]1O[C@H](CO)[C@@H](O)[C@H](O)[C@H]1O")
4.25

Please turn your attention to the following entry.
Ask: Name the reported pIC50 value associated with the compound COC1O[C@]23C=C[C@@H]4[C@@]1(CC[C@]1(C)[C@@H]([C@H](C)C[C@@H](O)C=C(C)C)CC[C@@]41C)[C@@H]2CC[C@H](O)C3(C)C (stereo partly drawn)
Reply: 4.45

----------
Items are presented alongside their recorded pIC50.
Tested on: human breast cancer cells MDA-MB-468
Method Summary: Cell viability test (Resazurin), MDA-MB-468 cells
Format: cell-based
Study Conditions: MDA-MB-468 cells, 48 hours, 0.1% FCS, Resazurin; read-out: inhibitory concentrations of cell growth activity IC50
pIC50: −log10 of the molar value.

Example molecules with recorded pIC50:
>>> test_result("CO[C@@H]1O[C@]23C=C[C@@H]4[C@@]1(CC[C@]1(C)[C@@H]([C@H](C)C[C@@H](O)C=C(C)C)CC[C@@]41C)[C@@H]2CC[C@H](O)C3(C)C")
"< 3.59"
>>> test_result("CO[C@H]1O[C@]23C=C[C@@H]4[C@@]1(CC[C@]1(C)[C@@H]([C@H](C)C[C@H](C=C(C)C)OC)CC[C@@]41C)[C@@H]2CC[C@H](O)C3(C)C")
"< 3.59"

Ask: Name the reported pIC50 value associated with the molecule `CO[C@@H]1O[C@]23C=C[C@@H]4[C@@]1(CC[C@]1(C)[C@@H]([C@H](C)C/C=C/C(C)(C)OC)CC[C@@]41C)[C@@H]2CC[C@H](O)C3(C)C`
Reply: < 3.59
